- target or test system: NIK/MAP3K14 (Homo sapiens (Human), UniProt Q99558)
- Sequence (Q99558 whole entry): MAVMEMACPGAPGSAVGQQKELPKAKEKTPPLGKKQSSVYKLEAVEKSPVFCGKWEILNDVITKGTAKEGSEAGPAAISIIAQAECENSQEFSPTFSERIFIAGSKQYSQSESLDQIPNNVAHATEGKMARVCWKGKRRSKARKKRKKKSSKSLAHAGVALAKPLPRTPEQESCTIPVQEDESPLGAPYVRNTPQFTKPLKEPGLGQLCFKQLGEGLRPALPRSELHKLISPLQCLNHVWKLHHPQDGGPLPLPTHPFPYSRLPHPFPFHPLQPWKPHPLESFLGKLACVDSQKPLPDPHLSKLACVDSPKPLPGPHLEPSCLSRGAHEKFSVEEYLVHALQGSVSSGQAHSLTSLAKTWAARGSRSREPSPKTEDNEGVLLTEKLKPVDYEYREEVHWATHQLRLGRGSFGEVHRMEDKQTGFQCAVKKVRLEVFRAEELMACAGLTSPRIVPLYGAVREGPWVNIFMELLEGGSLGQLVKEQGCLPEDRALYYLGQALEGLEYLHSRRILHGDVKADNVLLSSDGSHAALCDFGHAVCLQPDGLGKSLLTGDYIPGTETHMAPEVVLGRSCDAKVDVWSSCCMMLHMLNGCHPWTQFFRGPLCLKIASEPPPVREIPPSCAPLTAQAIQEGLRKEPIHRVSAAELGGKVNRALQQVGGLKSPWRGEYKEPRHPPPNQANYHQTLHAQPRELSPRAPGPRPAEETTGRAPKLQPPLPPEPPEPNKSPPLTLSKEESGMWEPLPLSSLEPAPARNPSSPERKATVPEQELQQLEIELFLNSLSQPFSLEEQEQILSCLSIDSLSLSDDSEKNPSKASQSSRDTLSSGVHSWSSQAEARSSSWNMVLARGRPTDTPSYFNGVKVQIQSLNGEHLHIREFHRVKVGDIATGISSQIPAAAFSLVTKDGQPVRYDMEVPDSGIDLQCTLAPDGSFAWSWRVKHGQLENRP
- procedure details: Inhibition of auto-phosphorylation of recombinant human NF-kappaB-inducing kinase (NIK/MAP3K14) activity (AlphaScreen)
- Assay type: biochemical
- test context: averaged values over all measurements on all batches, 25 microM ATP
- Method: Inhibition of Auto-Phosphorylation of Recombinant Human NF-kappaB-Inducing Kinase ([…]) Activity (AlphaScreen®) NIK/MAP3K14 auto-phosphorylation activity was measured using the AlphaScreen® (αscreen) format (Perkin Elmer). All compounds tested were dissolved in dimethyl sulfoxide (DMSO) and further dilutions were made in assay buffer. […] Protein A Acceptor and Glutathione-Donor beads were added before reading using an EnVision® Multilabel Plate Reader (Perkin Elmer). […]
Measured IC50 accompanies every entry in the list below.
parameter: IC50

| compound | result |
| --- | --- |
| C[C@]1(CO)CNc2c(C#N)cc(-c3ccnc(Nc4cc5c(nc4OCC4CC4)CCOC5)n3)cc21 [Compound 34] | 10.5 nM |
| CC1(CO)CNc2c(C#N)cc(-c3ccnc(Nc4cc5n(n4)CCOC5)n3)cc21 (stereo not drawn) [Compound 7b] | 11.8 nM |
| CC(C)Oc1nc2c(cc1Nc1nccc(-c3cc(C#N)c4c(c3)[C@@](C)(CO)CN4)n1)COCC2 [Compound 46] | 13 nM |
| COC[C@@H]1Cn2ncc(Nc3nccc(-c4cc(C#N)c5c(c4)[C@@](C)(CO)CN5)n3)c2O1 [Compound 19b] | 11.7 nM |
| COc1nc2c(cc1Nc1nccc(-c3cc(C#N)c4c(c3)[C@@](C)(CO)CN4)n1)CN(C1CC1)CC2 [Compound 52] | 7.8 nM |
| COc1nc2c(cc1Nc1nccc(-c3cc(C#N)c4c(c3)C(C)(CC(F)F)CN4)n1)CN(C)CC2 (stereo not drawn) [Compound 56] | 12 nM |
| CC1CCCn2ncc(Nc3nccc(-c4cc(C#N)c5c(c4)[C@@](C)(CO)CN5)n3)c2O1 (single isomer, unassigned) [Compound 30b] | 5.2 nM |
| CN1CCc2cc(CCC3CC3)c(Nc3nccc(-c4cc(C#N)c5c(c4)[C@@](C)(CO)CN5)n3)cc2CC1 (mixture of isomers) [Compound 26] | 5.1 nM |
| CC1(C)CNc2c(C#N)cc(-c3ccnc(Nc4cc(F)cc5[nH]ccc45)n3)cc21 [Compound 8c] | 38 nM |
| CC1(CO)CNc2c(C#N)cc(-c3ccnc(Nc4cc(Cl)cc5c4OCC5)n3)cc21 (stereo not drawn) [Compound 41] | 11.8 nM |
| CC1(CO)CNc2c(C#N)cc(-c3ccnc(Nc4cc(Cl)cc5c4CCN5)n3)cc21 (stereo not drawn) [Compound 10] | 4.9 nM |
| CC(C)(O)Cn1ccc2c(Nc3nccc(-c4cc(C#N)c5c(c4)C(C)(C)CN5)n3)cc(Cl)cc21 [Compound 2c] | 87.1 nM |
| CNC(=O)CCn1ccc2c(Nc3nccc(-c4cc(C#N)c5c(c4)C(C)(CO)CN5)n3)cc(Cl)cc21 (stereo not drawn) [Compound 11c] | 4.3 nM |
| CC1(CO)CNc2c(C#N)cc(-c3ccnc(Nc4ccc5c(c4)CCCO5)n3)cc21 (stereo not drawn) [Compound 1] | 5.9 nM |
| CC1(CO)CNc2c(C#N)cc(-c3ccnc(Nc4cc(Cl)cc5c4ccn5CCN4CCOCC4)n3)cc21 (stereo not drawn) [Compound 4c] | 9.6 nM |
